Test system: HT29 colon
Assay: NCI tumour cell line growth inhibition, 48 h
# TGI annotations
QUANTITY_NAME: TGI

N#CC(C(=O)/C(=N\Nc1nc(=S)[nH]n1N)C(C#N)c1ccc(Cl)cc1)c1ccc(Cl)cc1 (stereo not given) : > 100 µM
CCCCc1c2c(nc3c1CCCC3O)/C(=C/c1ccccc1)CCC2 (stereo not given) : 46.1 µM
C[C@]12CCC[C@H](Cl)C1(O)C[C@H](C(=O)O)CC2 (stereo not given in full) : > 100 µM
COc1cc2c(c(C)c1O)[C@H]1COc3ccccc3[C@H]1O2 : > 100 µM
CN(C)c1ccc(/C=C(\C#N)C(N)=C(C#N)C#N)cc1 : > 100 µM

====

System: SF-539 CNS
Experiment: NCI tumour cell line growth inhibition, 48 h; in the data active = GI50 below about 0.43 µM; inactive = the rest
Possible outcomes: Yes for active, No for inactive

CC(=O)c1ccc(NC(=O)CSc2nnc(-c3cc(-c4ccc(C)cc4)nc4ccccc34)o2)cc1 : No
CN(C)c1ccc(C(=C2C=CC(=[N+](C)C)C=C2)c2ccc(N(C)C)cc2)cc1 (tested in a mixture with another compound) : Yes
CN(C)c1ccc(N=Cc2c([O-])ccc3ccccc23)cc1.[C-]#[O+].[C-]#[O+].[Ir] : No
C=C1C[C@](OC)([C@H](O)C(=O)N[C@@H](OC)[C@@H]2C[C@@H](O)C(C)(C)[C@@H](C[C@@H](COC)OC)O2)O[C@H](C)[C@@H]1C : Yes
Cc1nc2sccn2c(=O)c1CCN1CCC(=C(c2ccc(F)cc2)c2ccc(F)cc2)CC1 : No
Cc1cccc(Oc2nccc(-c3c(-c4ccc(F)cc4)ncn3C3CCNCC3)n2)c1C : No
O=[N+]([O-])c1ccc(-c2nc(-c3ccccc3)c(-c3ccccc3)n2-c2ccccc2)cc1 : No
CC(=O)c1c(C(F)(F)F)n([O-])c2ccc(Cl)cc2[n+]1=O : Yes
Cc1cc2cc3cc(C)c(N(C)C)cc3nc2cc1N(C)C : No
COC(=O)c1ccc2c(c1)nc(-c1cc3ccccc3[nH]c1=O)n2-c1cc(C(C)(C)C)[nH]n1 : No
OCCCN=NNc1ccc(-c2nc3ccccc3[nH]2)cc1 : No
CC(=O)Nc1ccc(Sc2ccc([N+](=O)[O-])o2)cc1 : No
COCC1CCCN1c1ccc(/C=C(/C#N)C(N)=S)cc1 (stereo not drawn) : No

====

System: MCF7 breast
Assay: NCI tumour cell line growth inhibition, 48 h
# TGI annotations
QUANTITY_NAME: TGI

O=C1C(Br)=CC2(C=C1Br)CCN=c1c2c(O)c2nc3ccccc3c3ccnc1c23 : 2.69 µM
O=[N+]([O-])c1ccc(-c2nc(-c3ccccc3)c(-c3ccccc3)n2-c2ccccc2)cc1 : 6.28 µM
N#Cc1c(-c2ccc(Cl)cc2)n(O)c2ccccc12 : > 100 µM
CCOC(=O)c1c(C)c2c(n1C)CCc1cn[nH]c1-2 : > 100 µM
O=C1Nc2cccc(Cl)c2/C1=C\c1c(Cl)nc2sccn12 : > 100 µM
C/C(=N\NC(=O)c1ccncc1)c1ccc2ccccc2c1O : 14 µM
O=C1C(/C=C/c2ccc(Cl)cc2)=NNC2N1N=C1NC(=O)C3(NN12)c1ccccc1-c1ccccc13 (stereo not drawn) : > 100 µM
O=P(O)(O)c1ccccc1 (tested in a mixture with another compound) : > 100 µM
